tested on: PXR homodimer (NR concentration 270 nM); test: PBM binding z-score (relative to random genomic background probes); higher = stronger binding; sequences stand for … in GC…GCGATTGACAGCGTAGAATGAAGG
Listed next: entries and their corresponding PBM binding z-score.
PROPERTY NAME: PBM binding z-score

[
  {
    "SEQ": "GGAACGAGGGCATTCGAGTCGATAGCATGGCGAT",
    "PROPERTY NAME": "PBM binding z-score",
    "NUMERIC RESULT": 0.546
  },
  {
    "SEQ": "TTTTGTAGATCAAGCAGGTTAAGAAAGCCTGAGT",
    "PROPERTY NAME": "PBM binding z-score",
    "NUMERIC RESULT": 0.386
  },
  {
    "SEQ": "CGAACTAGGTCAAAGACAGTGAATCTCCGCACGC",
    "PROPERTY NAME": "PBM binding z-score",
    "NUMERIC RESULT": 0.0351
  },
  {
    "SEQ": "CCGATTAGTTGACCATAAGGGCAACCGAAGCTCG",
    "PROPERTY NAME": "PBM binding z-score",
    "NUMERIC RESULT": 0.00458
  },
  {
    "SEQ": "ATATGTTGGTTAGCTGGGGTCATTCAGACTAGGC",
    "PROPERTY NAME": "PBM binding z-score",
    "NUMERIC RESULT": 3.66
  },
  {
    "SEQ": "TATACACGGTCAAAGGCCAGAGTACGAATGTCGA",
    "PROPERTY NAME": "PBM binding z-score",
    "NUMERIC RESULT": 0.583
  },
  {
    "SEQ": "CCTAGTTTGTCAGGAGGTCACACACCGGATATGA",
    "PROPERTY NAME": "PBM binding z-score",
    "NUMERIC RESULT": 1.7
  },
  {
    "SEQ": "TTACCAAGGTGACAGGTCGTTGATGCACGCCTTG",
    "PROPERTY NAME": "PBM binding z-score",
    "NUMERIC RESULT": 0.0726
  },
  {
    "SEQ": "TCTGCTAGATCAACGATGGTCAGCTAATCTGCTA",
    "PROPERTY NAME": "PBM binding z-score",
    "NUMERIC RESULT": -1.18
  },
  {
    "SEQ": "TCTTGTAGATCAACAGGAGGTTAAGATAGATCGA",
    "PROPERTY NAME": "PBM binding z-score",
    "NUMERIC RESULT": -0.114
  },
  {
    "SEQ": "TCATATAGGTAAATTCTAGGTGAAAGTCCGATCT",
    "PROPERTY NAME": "PBM binding z-score",
    "NUMERIC RESULT": 0.524
  },
  {
    "SEQ": "CGAACTAGGTCATCCAGTACAGTGAATACATTGA",
    "PROPERTY NAME": "PBM binding z-score",
    "NUMERIC RESULT": 1.66
  },
  {
    "SEQ": "CACACTAGGTCAAGGTCAAAGTCGGTTTGTGCCA",
    "PROPERTY NAME": "PBM binding z-score",
    "NUMERIC RESULT": 4.08
  },
  {
    "SEQ": "GGAACGAGGGCAGAGTTGATAGCATCTGTCGACG",
    "PROPERTY NAME": "PBM binding z-score",
    "NUMERIC RESULT": -0.145
  },
  {
    "SEQ": "GCTGCAAGGTCAGGTTGGTCAGCTAACGGGTACG",
    "PROPERTY NAME": "PBM binding z-score",
    "NUMERIC RESULT": -0.0524
  },
  {
    "SEQ": "CCGACTGGGGCAGAAAGGTTACCAAACCATCCGG",
    "PROPERTY NAME": "PBM binding z-score",
    "NUMERIC RESULT": -0.532
  },
  {
    "SEQ": "CCTTACGGGTCACTCCAGGTTATACCATCGGAGT",
    "PROPERTY NAME": "PBM binding z-score",
    "NUMERIC RESULT": 0.455
  },
  {
    "SEQ": "GCTAACAGGCCATTTGGGTCACTCAATGACGGGC",
    "PROPERTY NAME": "PBM binding z-score",
    "NUMERIC RESULT": 0.0442
  }
]
